Entries and their fractional viability values follow.
Test system: TYKNU
Experiment: fractional viability relative to vehicle; higher = less growth inhibition
Conditions: 10uM; 72 h; genotype: sgCTRLA1 (non-targeting control)
The full ranking holds about 2,000 compounds; the median of “fractional viability relative to vehicle” is about 0.91, and the lowest 2% start at about 0.045. Only a selection was taken, and the lowest values are over-represented in it overall.
Please state the value as a number alone, without comment.

The following compounds have reported results that may help.
Clc1ccc(NN=C(c2ccccc2)c2ccccn2)nc1 | 0.0108
Cc1cc(C(O)=C2C(=O)C(=O)N(CCCN3CCOCC3)C2c2ccncc2)ccc1OCc1ccccc1 (centres undefined) | 0.726
NC[C@H](O)c1ccc(O)c(O)c1 [Noradrenaline bitartrate monohydrate] | 0.84

Request: Endpoint output: fractional viability of `CCc1cccc(CC)c1NC(=O)N1Cc2[nH]nc(NC(=O)c3ccc(N4CCN(C)CC4)cc3)c2C1` . Value?
Response: 0.462

Request: Endpoint output: fractional viability of `Cn1cncc1[C@@](N)(c1ccc(Cl)cc1)c1ccc2c(c1)c(-c1cccc(Cl)c1)cc(=O)n2C` . Value?
Response: 0.366

Request: Endpoint output: fractional viability of `Cn1c2ccccc2c2c3c(c4c5ccccc5n(CCC#N)c4c21)CNC3=O` . Value?
Response: 0.79

Request: Endpoint output: fractional viability of `Cc1ccc(NC(=O)c2cccc(C(C)(C)C#N)c2)cc1Nc1ccc2ncn(C)c(=O)c2c1` . Value?
Response: 0.31

Request: Endpoint output: fractional viability of Nc1cccc2c1C(=O)N(C1CCC(=O)NC1=O)C2=O (centres undefined) [Pomalidomide] . Value?
Response: 1.08

Request: Endpoint output: fractional viability of `COc1cc2c(Oc3ccc4[nH]c(C)cc4c3F)ncnc2cc1OCCCN1CCCC1` . Value?
Response: 0.0421

* * *

System: TYKNU
Assay: fractional viability relative to vehicle; TYKNU is a high-grade serous ovarian cancer line; higher = less growth inhibition
Conditions: 10uM; 72 h; genotype: DNM1L knockout (sgDNM1L #1)
Whole data set: some 2,000 compounds, median “fractional viability relative to vehicle” near 0.91, cut for the lowest 2% near 0.045. Only a selection was taken, and the lowest values are over-represented in it overall.
Entries and their fractional viability values follow.
Please state the value as a number alone, without comment.

O=C(N/N=C/c1cc(O)c(O)cc1O)c1cc2ccccc2cc1O | 0.857
COC(=O)c1ccc2c(c1)NC(=O)/C2=C(\Nc1ccc(N(C)C(=O)CN2CCN(C)CC2)cc1)c1ccccc1 | 0.152
CCS(=O)(=O)Nc1ccc2c(c1)/C(=C(/Nc1ccc(CN3CCCCC3)cc1)c1ccccc1)C(=O)N2 | 0.0548
NC(=O)c1noc([C@H](CCCC2CCCCC2)CC(=O)NO)n1 | 0.623
CCc1c(Cl)c(O)c(Cl)c(O)c1C(=O)O[C@H]1[C@H](O)[C@H](OC)[C@H](OC/C2=C\C=C\C[C@H](O)/C(C)=C/[C@H](CC)[C@@H](O[C@@H]3OC(C)(C)[C@@H](OC(=O)C(C)C)[C@H](O)[C@@H]3O)/C(C)=C/C(C)=C/C[C@@H]([C@@H](C)O)OC2=O)O[C@@H]1C | 0.494

Request: Request body: readout fractional viability, system TYKNU, query `C[N+](C)(C)C[C@H](O)CC(=O)[O-]` . Return the value.
Response: 0.8

Request: Request body: readout fractional viability, system TYKNU, query `O=S(=O)(NCCSSCCNS(=O)(=O)c1cc(Cl)ccc1Cl)c1cc(Cl)ccc1Cl` . Return the value.
Response: 0.197
